- Study system: recombinant human PI3Kβ (6-His(p110-p85α)) (Homo sapiens (Human))
- Sequence (P42338 whole entry): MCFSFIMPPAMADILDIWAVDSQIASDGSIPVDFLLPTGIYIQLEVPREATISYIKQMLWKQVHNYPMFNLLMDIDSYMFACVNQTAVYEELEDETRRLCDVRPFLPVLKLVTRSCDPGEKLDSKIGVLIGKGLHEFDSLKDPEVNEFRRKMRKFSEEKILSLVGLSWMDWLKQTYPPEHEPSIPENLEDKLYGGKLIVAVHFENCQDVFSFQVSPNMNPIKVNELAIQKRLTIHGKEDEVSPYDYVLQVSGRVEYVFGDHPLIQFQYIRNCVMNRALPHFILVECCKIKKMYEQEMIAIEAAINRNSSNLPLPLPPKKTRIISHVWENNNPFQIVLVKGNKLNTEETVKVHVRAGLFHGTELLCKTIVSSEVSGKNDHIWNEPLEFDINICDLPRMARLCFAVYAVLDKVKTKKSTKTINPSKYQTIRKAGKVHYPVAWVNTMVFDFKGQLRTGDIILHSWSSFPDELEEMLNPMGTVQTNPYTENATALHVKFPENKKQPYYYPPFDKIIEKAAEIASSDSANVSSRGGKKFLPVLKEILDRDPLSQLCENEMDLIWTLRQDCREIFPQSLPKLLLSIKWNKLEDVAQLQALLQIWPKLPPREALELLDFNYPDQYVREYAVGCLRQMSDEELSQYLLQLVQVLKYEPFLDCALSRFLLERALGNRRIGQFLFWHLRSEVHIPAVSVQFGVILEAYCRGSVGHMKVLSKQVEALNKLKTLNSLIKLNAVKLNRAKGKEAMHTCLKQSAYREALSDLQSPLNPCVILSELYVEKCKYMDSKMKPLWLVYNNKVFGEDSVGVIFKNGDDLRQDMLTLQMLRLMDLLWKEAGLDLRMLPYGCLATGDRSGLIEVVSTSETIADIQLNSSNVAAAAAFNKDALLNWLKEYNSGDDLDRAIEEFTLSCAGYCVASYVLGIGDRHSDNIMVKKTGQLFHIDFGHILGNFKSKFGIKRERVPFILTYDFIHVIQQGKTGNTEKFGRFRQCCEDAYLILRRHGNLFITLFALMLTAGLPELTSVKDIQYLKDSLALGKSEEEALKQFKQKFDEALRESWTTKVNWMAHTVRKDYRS
- Sequence (P27986 whole entry partner): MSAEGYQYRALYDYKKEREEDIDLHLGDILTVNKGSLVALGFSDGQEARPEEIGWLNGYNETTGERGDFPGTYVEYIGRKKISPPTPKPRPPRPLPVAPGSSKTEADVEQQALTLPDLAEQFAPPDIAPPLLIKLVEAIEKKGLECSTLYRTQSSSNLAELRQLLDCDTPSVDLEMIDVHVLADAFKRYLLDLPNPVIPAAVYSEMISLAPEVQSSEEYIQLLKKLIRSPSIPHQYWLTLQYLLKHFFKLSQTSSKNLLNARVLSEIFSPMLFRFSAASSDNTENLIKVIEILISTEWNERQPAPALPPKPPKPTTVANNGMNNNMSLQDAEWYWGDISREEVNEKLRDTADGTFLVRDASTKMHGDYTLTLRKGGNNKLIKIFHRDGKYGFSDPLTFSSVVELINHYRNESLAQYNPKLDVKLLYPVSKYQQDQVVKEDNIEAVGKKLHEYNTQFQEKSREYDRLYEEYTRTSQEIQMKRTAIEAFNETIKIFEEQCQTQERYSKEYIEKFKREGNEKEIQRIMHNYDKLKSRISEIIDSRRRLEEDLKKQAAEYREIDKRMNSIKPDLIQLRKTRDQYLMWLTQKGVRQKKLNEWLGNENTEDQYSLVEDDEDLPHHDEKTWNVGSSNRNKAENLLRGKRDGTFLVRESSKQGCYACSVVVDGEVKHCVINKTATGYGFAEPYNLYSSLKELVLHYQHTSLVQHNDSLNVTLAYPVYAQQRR
- Test protocol: Enzymatic activity assay for recombinant human PI3Kβ (ADP-Glo)
- Experimental context: 1.2 nM PI3Kβ, 20 μM ATP, 80 μM DiC8-PIP2, ADP-Glo
pIC50: −log10 of the molar value.
Property name: pIC50

Record excerpt, results attached:
{"columns": ["Smiles data", "Property name", "Result"],
 "data": [
  ["CC[C@H](C)N1Cc2cc(-c3sc(Nc4cccc(N5CCOCC5=O)n4)nc3C)cc(S(=O)(=O)NC)c2C1=O", "pIC50", 5.94],
  ["CNS(=O)(=O)c1cc(-c2sc(Nc3cccc(N4CCN(CCO)CC4=O)n3)nc2C)cc2c1C(=O)N([C@@H](C)C1CC1)C2", "pIC50", 6.32],
  ["Cc1nc(Nc2cccc(N3CCNCC3=O)n2)sc1-c1cc2c(c(S(=O)(=O)NC(C)C)c1)C(=O)N([C@@H](C)C1CC1)C2", "pIC50", 6.38],
  ["Cc1nc(Nc2cccc(N3CCNC3=O)n2)sc1-c1cc2c(c(S(=O)(=O)NC3COC3)c1)C(=O)N([C@@H](C)C1CC1)C2", "pIC50", 6.03]
]}

(I) Cc1nc(Nc2cccc(N3CCOCC3=O)n2)sc1-c1cc2c(c(S(C)(=O)=O)c1)C(=O)N([C@@H](C)C1CC1)C2
(II) Cc1nc(Nc2cccc(N3CCCOC3=O)n2)sc1-c1cc2c(c(S(=O)(=O)NC(C)C)c1)C(=O)N([C@@H](C)C(F)(F)F)C2
(Q) Returns the identifier with the smallest measured pIC50 among I and II . State your choice using its label.
(A) I
(I: 6.16, II: 7.21)

(a) Cc1nc(Nc2cccc(N3CCOCC3=O)n2)sc1-c1cc2c(c(S(=O)(=O)NC(C)C)c1)C(=O)N([C@@H](C)C(F)(F)F)C2
(b) CNS(=O)(=O)c1cc(-c2sc(Nc3cccc(N4CCCC4=O)n3)nc2C)cc2c1C(=O)N([C@@H](C)C(F)(F)F)C2
(Q) Returns the identifier with the smallest measured pIC50 among a and b . State your choice using its label.
(A) a

(a) CNS(=O)(=O)c1cc(-c2sc(Nc3cccc(N(C)C(=O)[C@H](C)OC)n3)nc2C)cc2c1C(=O)N([C@@H](C)C1CC1)C2
(b) CNS(=O)(=O)c1cc(-c2sc(Nc3cccc(N4CCN[C@H](C)C4=O)n3)nc2C)cc2c1C(=O)N([C@@H](C)C1CC1)C2
(Q) Among a and b , which shows a numerically higher pIC50 result? State your choice using its label.
(A) b
(b: 6.55, a: 6.27)

* * *

- Study system: recombinant human PI3Kβ (6-His(p110-p85α)) (Homo sapiens (Human))
- Test protocol: Enzymatic activity assay for recombinant human PI3Kβ (ADP-Glo)
- Experimental context: 1.2 nM PI3Kβ, 20 μM ATP, 80 μM DiC8-PIP2, ADP-Glo
pIC50: −log10 of the molar value.
Property name: pIC50

(A) CNS(=O)(=O)c1cc(-c2sc(Nc3cccc(N(C)C(=O)[C@@H](C)OC)n3)nc2C)cc2c1C(=O)N([C@@H](C)C1CC1)C2
(B) CNS(=O)(=O)c1cc(-c2sc(Nc3cccc(N4CCN[C@@H](C)C4=O)n3)nc2C)cc2c1C(=O)N([C@@H](C)C1CC1)C2
(C) CNS(=O)(=O)c1cc(-c2sc(Nc3cccc(N4CCCOC4=O)n3)nc2C)cc2c1C(=O)N([C@@H](C)C1CC1)C2
(Q) Rank the 3 compounds shown above by pIC50, smallest number first. Write the labels, ordered according to the request.
(A) A, B, C

* * *

- Study system: recombinant human PI3Kγ ((aa144-1102)-6His) (Homo sapiens (Human))
- Sequence (P48736 144-1102): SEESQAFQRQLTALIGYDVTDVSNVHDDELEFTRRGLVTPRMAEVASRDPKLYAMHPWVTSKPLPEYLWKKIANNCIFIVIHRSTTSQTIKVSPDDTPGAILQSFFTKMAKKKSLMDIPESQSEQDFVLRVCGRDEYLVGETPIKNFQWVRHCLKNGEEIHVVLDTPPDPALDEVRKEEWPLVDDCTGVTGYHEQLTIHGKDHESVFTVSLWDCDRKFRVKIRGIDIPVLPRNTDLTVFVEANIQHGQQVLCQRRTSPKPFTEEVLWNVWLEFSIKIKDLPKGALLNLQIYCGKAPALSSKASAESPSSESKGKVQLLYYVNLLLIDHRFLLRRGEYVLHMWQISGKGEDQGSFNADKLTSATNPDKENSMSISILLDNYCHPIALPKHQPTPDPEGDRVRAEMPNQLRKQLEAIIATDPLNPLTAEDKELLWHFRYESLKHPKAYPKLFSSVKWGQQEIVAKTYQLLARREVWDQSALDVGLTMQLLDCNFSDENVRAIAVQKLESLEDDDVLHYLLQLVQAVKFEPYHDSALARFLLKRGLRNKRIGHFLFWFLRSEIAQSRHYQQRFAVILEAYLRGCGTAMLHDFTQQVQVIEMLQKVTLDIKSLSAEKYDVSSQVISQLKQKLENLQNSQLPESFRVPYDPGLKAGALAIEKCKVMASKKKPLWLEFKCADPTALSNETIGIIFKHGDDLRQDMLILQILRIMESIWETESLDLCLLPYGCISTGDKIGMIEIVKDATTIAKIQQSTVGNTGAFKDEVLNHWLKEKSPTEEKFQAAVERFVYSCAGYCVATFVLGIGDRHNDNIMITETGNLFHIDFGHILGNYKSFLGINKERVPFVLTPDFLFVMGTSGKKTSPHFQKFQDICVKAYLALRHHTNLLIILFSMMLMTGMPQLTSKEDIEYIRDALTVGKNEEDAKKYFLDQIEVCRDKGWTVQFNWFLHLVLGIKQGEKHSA
- Test protocol: Enzymatic activity assay for recombinant human PI3Kγ (ADP-Glo)
- Experimental context: 1.2 nM PI3Kγ, 20 μM ATP, 80 μM DiC8-PIP2, ADP-Glo
Property name: IC50 (nM)

Record excerpt, results attached:
{"columns": ["Smiles data", "Study system", "IC50 / nM"],
 "data": [
  ["CNS(=O)(=O)c1cc(-c2sc(Nc3cccc(N4CCN[C@@H](C)C4=O)n3)nc2C)cc2c1C(=O)N([C@@H](C)C1CC1)C2", "recombinant human PI3Kγ ((aa144-1102)-6His) (Homo sapiens (Human))", 1.2],
  ["Cc1nc(Nc2cccc(N3CCCC3=O)n2)sc1-c1cc2c(c(S(C)(=O)=O)c1)C(=O)N([C@@H](C)C(F)(F)F)C2", "recombinant human PI3Kγ ((aa144-1102)-6His) (Homo sapiens (Human))", 0.9],
  ["CNS(=O)(=O)c1cc(-c2sc(Nc3cccc(N4CC[C@H](O)C4=O)n3)nc2C)cc2c1C(=O)N([C@@H](C)C1CC1)C2", "recombinant human PI3Kγ ((aa144-1102)-6His) (Homo sapiens (Human))", 1],
  ["Cc1nc(Nc2cccc(N3CCNC3=O)n2)sc1-c1cc2c(c(S(C)(=O)=O)c1)C(=O)N([C@@H](C)C1CC1)C2", "recombinant human PI3Kγ ((aa144-1102)-6His) (Homo sapiens (Human))", 0.8]
]}

(a) CNS(=O)(=O)c1cc(-c2sc(Nc3cccc(N4CCCOC4=O)n3)nc2C)cc2c1C(=O)N([C@@H](C)C1CC1)C2
(b) CNS(=O)(=O)c1cc(-c2sc(Nc3cccc(N4CCCNCC4=O)n3)nc2C)cc2c1C(=O)N([C@@H](C)C1CC1)C2
(c) Cc1nc(Nc2cccc(N3CCOCC3=O)n2)sc1-c1cc2c(c(S(=O)(=O)NC(C)C)c1)C(=O)N([C@@H](C)C(F)(F)F)C2
(Q) Order the records, beginning with the lowest IC50 and ending with the highest. Write the labels, ordered according to the request.
(A) a, c, b

(A) CC(=O)Nc1cccc(Nc2nc(C)c(-c3cc4c(c(S(C)(=O)=O)c3)C(=O)N([C@@H](C)C3CC3)C4)s2)n1
(B) CCNS(=O)(=O)c1cc(-c2sc(Nc3cccc(N4CCNCC4=O)n3)nc2C)cc2c1C(=O)N([C@@H](C)C1CC1)C2
(Q) Among A and B , which shows a numerically higher IC50 result? State your choice using its label.
(A) B

(P) Cc1nc(Nc2cccc(N3CCNC3=O)n2)sc1-c1cc2c(c(S(C)(=O)=O)c1)C(=O)N([C@@H](C)C(F)(F)F)C2
(Q) CNS(=O)(=O)c1cc(-c2sc(Nc3cccc(N4CCNCC4=O)n3)nc2C)cc2c1C(=O)N([C@@H](C)C1CC1)C2
(Q) Returns the identifier with the smallest measured IC50 among P and Q . State your choice using its label.
(A) P
(P: 0.8 nM, Q: 1.3 nM)

* * *

- Study system: recombinant human PI3Kγ ((aa144-1102)-6His) (Homo sapiens (Human))
- Test protocol: Enzymatic activity assay for recombinant human PI3Kγ (ADP-Glo)
- Experimental context: 1.2 nM PI3Kγ, 20 μM ATP, 80 μM DiC8-PIP2, ADP-Glo
Property name: IC50 (nM)

{"columns": ["Compound", "Property name", "Result"],
 "data": [
  ["CCOCC(=O)N(C)c1cccc(Nc2nc(C)c(-c3cc4c(c(S(=O)(=O)NC)c3)C(=O)N([C@@H](C)C3CC3)C4)s2)n1 [Example 17]", "IC50", 1.1],
  ["CNS(=O)(=O)c1cc(-c2sc(Nc3cccc(N4C[C@@H](C)NCC4=O)n3)nc2C)cc2c1C(=O)N([C@@H](C)C1CC1)C2 [Example 45]", "IC50", 0.8],
  ["CNS(=O)(=O)c1cc(-c2sc(Nc3cccc(N4CCCS4(=O)=O)n3)nc2C)cc2c1C(=O)N([C@@H](C)C1CC1)C2 [Example 24]", "IC50", 0.9]
]}

(P) Cc1nc(Nc2cccc(N3CCOC3=O)n2)sc1-c1cc2c(c(S(C)(=O)=O)c1)C(=O)N([C@@H](C)C(F)(F)F)C2 [Example 12]
(Q) CNS(=O)(=O)c1cc(-c2sc(Nc3cccc(N4CCNC(C)(C)C4=O)n3)nc2C)cc2c1C(=O)N([C@@H](C)C1CC1)C2 [Example 47]
(Q) Returns the identifier with the smallest measured IC50 among P and Q . State your choice using its label.
(A) P
(P: 0.9 nM, Q: 1.3 nM)

* * *

- Study system: recombinant human PI3Kδ (6-His(p110-p85α)) (Homo sapiens (Human))
- Sequence (O00329 whole entry): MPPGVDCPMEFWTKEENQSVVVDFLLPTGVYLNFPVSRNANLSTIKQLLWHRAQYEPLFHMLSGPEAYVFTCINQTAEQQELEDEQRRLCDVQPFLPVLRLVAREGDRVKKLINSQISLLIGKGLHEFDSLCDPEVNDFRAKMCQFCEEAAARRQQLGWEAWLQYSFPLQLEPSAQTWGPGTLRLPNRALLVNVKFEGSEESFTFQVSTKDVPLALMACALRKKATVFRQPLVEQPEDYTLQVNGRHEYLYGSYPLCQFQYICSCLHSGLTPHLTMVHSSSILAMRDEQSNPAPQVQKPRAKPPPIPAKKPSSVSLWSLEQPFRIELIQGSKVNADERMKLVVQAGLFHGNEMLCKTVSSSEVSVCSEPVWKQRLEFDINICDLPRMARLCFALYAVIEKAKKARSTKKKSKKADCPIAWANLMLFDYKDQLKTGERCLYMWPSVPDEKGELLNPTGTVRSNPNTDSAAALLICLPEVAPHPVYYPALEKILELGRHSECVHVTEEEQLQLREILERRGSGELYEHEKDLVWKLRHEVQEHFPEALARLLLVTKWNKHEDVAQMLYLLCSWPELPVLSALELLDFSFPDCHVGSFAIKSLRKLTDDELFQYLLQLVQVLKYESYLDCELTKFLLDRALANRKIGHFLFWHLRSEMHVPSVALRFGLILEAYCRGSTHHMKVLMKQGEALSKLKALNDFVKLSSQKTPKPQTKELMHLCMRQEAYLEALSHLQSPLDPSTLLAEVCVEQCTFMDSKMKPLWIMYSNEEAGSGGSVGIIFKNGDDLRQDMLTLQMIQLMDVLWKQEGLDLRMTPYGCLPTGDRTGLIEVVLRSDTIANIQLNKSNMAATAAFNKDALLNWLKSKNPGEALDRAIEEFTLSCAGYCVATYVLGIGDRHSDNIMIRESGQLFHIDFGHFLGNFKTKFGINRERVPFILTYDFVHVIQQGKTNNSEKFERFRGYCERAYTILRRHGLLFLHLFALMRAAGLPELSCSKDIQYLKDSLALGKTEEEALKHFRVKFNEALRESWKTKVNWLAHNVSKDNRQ
- Sequence (P27986 whole entry partner): as the sequence (P27986 whole entry partner) above
- Test protocol: Enzymatic activity assay for recombinant human PI3Kδ (ADP-Glo)
- Experimental context: 0.6 nM PI3Kδ, 20 μM ATP, 80 μM DiC8-PIP2, ADP-Glo
pIC50: −log10 of the molar value.
Property name: pIC50

Record excerpt, results attached:
{"columns": ["Smiles data", "Study system", "pIC50"],
 "data": [
  ["Cc1nc(Nc2cccc(N3CCOC3=O)n2)sc1-c1cc2c(c(S(C)(=O)=O)c1)C(=O)N([C@@H](C)C(F)(F)F)C2", "recombinant human PI3Kδ (6-His(p110-p85α)) (Homo sapiens (Human))", 8.80],
  ["CCOCC(=O)N(C)c1cccc(Nc2nc(C)c(-c3cc4c(c(S(=O)(=O)NC)c3)C(=O)N([C@@H](C)C3CC3)C4)s2)n1", "recombinant human PI3Kδ (6-His(p110-p85α)) (Homo sapiens (Human))", 9.52],
  ["Cc1nc(Nc2cccc(N3CCOCC3=O)n2)sc1-c1cc2c(c(S(=O)(=O)NC(C)C)c1)C(=O)N([C@@H](C)C(F)(F)F)C2", "recombinant human PI3Kδ (6-His(p110-p85α)) (Homo sapiens (Human))", 8.92]
]}

(I) CNS(=O)(=O)c1cc(-c2sc(Nc3cccc(N4CC[C@@H](O)C4=O)n3)nc2C)cc2c1C(=O)N([C@@H](C)C1CC1)C2
(II) CNS(=O)(=O)c1cc(-c2sc(Nc3cccc(N4CC(=O)N5CCC[C@H]5C4=O)n3)nc2C)cc2c1C(=O)N([C@@H](C)C1CC1)C2
(III) Cc1nc(Nc2cccc(N3CCNCC3=O)n2)sc1-c1cc2c(c(S(C)(=O)=O)c1)C(=O)N([C@@H](C)C1CC1)C2
(IV) CNS(=O)(=O)c1cc(-c2sc(Nc3cccc(N4CCOCC4=O)n3)nc2C)cc2c1C(=O)N([C@@H](C)C(C)(C)C)C2
(V) CNS(=O)(=O)c1cc(-c2sc(Nc3cccc(N4C[C@@H](C)NCC4=O)n3)nc2C)cc2c1C(=O)N([C@@H](C)C1CC1)C2
(Q) Order the records, beginning with the lowest pIC50 and ending with the highest. Write the labels, ordered according to the request.
(A) II, IV, III, V, I

(A) CNS(=O)(=O)c1cc(-c2sc(Nc3cccc(N(C)C(=O)COC)n3)nc2C)cc2c1C(=O)N([C@@H](C)C1CC1)C2
(B) CNS(=O)(=O)c1cc(-c2sc(Nc3cccc(N(C)C(C)=O)n3)nc2C)cc2c1C(=O)N([C@@H](C)C1CC1)C2
(Q) Returns the identifier with the smallest measured pIC50 among A and B . State your choice using its label.
(A) B

(a) Cc1nc(Nc2cccc(N3CCCOC3=O)n2)sc1-c1cc2c(c(S(=O)(=O)NC(C)C)c1)C(=O)N([C@@H](C)C(F)(F)F)C2
(b) Cc1nc(Nc2cccc(N3Cc4ncccc4C3=O)n2)sc1-c1cc2c(c(S(C)(=O)=O)c1)C(=O)N([C@@H](C)C1CC1)C2
(Q) Returns the identifier with the smallest measured pIC50 among a and b . State your choice using its label.
(A) b
(b: 8.57, a: 9.30)

(A) CNS(=O)(=O)c1cc(-c2sc(Nc3cccc(N4CCNC4=O)n3)nc2C)cc2c1C(=O)N([C@@H](C)C(F)(F)F)C2
(B) CNS(=O)(=O)c1cc(-c2sc(Nc3cccc(N4CCN[C@@H](C)C4=O)n3)nc2C)cc2c1C(=O)N([C@@H](C)C1CC1)C2
(C) CNS(=O)(=O)c1cc(-c2sc(Nc3cccc(N4CCCNCC4=O)n3)nc2C)cc2c1C(=O)N([C@@H](C)C1CC1)C2
(Q) Rank by pIC50 (largest to smallest). Write the labels, ordered according to the request.
(A) A, B, C
(A: 9.15, B: 8.82, C: 7.72)

(I) Cc1nc(Nc2cccc(N3CCCC3=O)n2)sc1-c1cc2c(c(S(=O)(=O)NC3COC3)c1)C(=O)N([C@@H](C)C(F)(F)F)C2
(II) CNS(=O)(=O)c1cc(-c2sc(Nc3cccc(N4CCCOC4=O)n3)nc2C)cc2c1C(=O)N(C(C)(C)C)C2
(III) CNS(=O)(=O)c1cc(-c2sc(Nc3cccc(N4C[C@H](O)CC4=O)n3)nc2C)cc2c1C(=O)N([C@@H](C)C1CC1)C2
(Q) Rank by pIC50 (largest to smallest). Write the labels, ordered according to the request.
(A) I, III, II
(I: 9.22, III: 8.96, II: 8.74)

(P) Cc1nc(Nc2cccc(N3CCN(C)C3=O)n2)sc1-c1cc2c(c(S(C)(=O)=O)c1)C(=O)N([C@@H](C)C1CC1)C2
(Q) Cc1nc(Nc2cccc(N3CCNC3=O)n2)sc1-c1cc2c(c(S(C)(=O)=O)c1)C(=O)N([C@@H](C)C(F)(F)F)C2
(Q) Among P and Q , which shows a numerically higher pIC50 result? State your choice using its label.
(A) P
